Biological target: glucocerebrosidase (Gcase) (Homo sapiens, UniProt P04062)
Sequence (P04062 40-536): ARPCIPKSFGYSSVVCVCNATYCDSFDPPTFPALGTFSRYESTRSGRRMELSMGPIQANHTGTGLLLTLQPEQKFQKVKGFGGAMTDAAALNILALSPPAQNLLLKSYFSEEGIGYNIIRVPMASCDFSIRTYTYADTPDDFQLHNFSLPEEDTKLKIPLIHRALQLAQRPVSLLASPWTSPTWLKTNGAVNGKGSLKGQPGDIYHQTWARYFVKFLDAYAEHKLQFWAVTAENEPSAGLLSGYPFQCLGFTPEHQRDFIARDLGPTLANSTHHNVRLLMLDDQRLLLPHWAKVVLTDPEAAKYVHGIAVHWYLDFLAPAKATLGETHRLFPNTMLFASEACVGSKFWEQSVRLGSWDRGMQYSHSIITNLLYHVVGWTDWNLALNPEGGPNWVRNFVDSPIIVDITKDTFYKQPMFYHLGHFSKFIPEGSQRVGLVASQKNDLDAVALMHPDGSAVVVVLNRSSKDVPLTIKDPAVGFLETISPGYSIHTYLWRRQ
Experiment: Glucocerebrosidase (Gcase) activation assay, 4-methylumbelliferyl-beta-D-glucopyranoside substrate, with saposin C
Format: biochemical
Details: 0.1 μM test compound; read-out: Percent Gcase Activation 0.1 μM Test Compound
# activation at 0.1 µM listing for each entry below

| compound | system | assay endpoint | val |
| --- | --- | --- | --- |
| Cc1cc(C)n2cnc(C(=O)N[C@@H](C)C3CC4(CCC4)C3)c2n1 [III-102] | glucocerebrosidase (Gcase) (Homo sapiens, UniProt P04062) | activation at 0.1 µM | < 10% |
| C#CC(C)(C)NC(=O)c1ncn2c(C)cc(-c3cc(F)cc(OC)c3)nc12 [III-187] | glucocerebrosidase (Gcase) (Homo sapiens, UniProt P04062) | activation at 0.1 µM | > 20% |
| COc1ccnc(-c2cc(C)n3cnc(C(=O)NC(C)C4CC4)c3n2)c1 (stereo not shown) [III-100] | glucocerebrosidase (Gcase) (Homo sapiens, UniProt P04062) | activation at 0.1 µM | < 10% |
| Cc1c(-c2ccc(F)cc2)cnc2c(C(=O)N[C@@H](C)C3CC3)ncn12 [III-38] | glucocerebrosidase (Gcase) (Homo sapiens, UniProt P04062) | activation at 0.1 µM | < 10% |
| Cc1cc(-c2cccc(F)c2)nc2c(C(=O)N[C@H](C)C3CC3)ncn12 [III-94] | glucocerebrosidase (Gcase) (Homo sapiens, UniProt P04062) | activation at 0.1 µM | 10 to 20% |
| Cc1cc(Oc2cccc(F)c2)nc2c(C(=O)N[C@@H](C)C3CC3)ncn12 [III-119] | glucocerebrosidase (Gcase) (Homo sapiens, UniProt P04062) | activation at 0.1 µM | < 10% |
| Cc1nc2c(C(=O)N[C@@H](C)C3CC3)ncn2cc1-c1ccc(F)cc1 [III-39] | glucocerebrosidase (Gcase) (Homo sapiens, UniProt P04062) | activation at 0.1 µM | < 10% |
| Cc1cc(-n2ccc(Cl)n2)nc2c(C(=O)NC(C3CC3)C(F)(F)F)ncn12 (stereo not shown) [III-143] | glucocerebrosidase (Gcase) (Homo sapiens, UniProt P04062) | activation at 0.1 µM | 10 to 20% |

From here, focus on the item given below.
Prompt: Tell me the measured activation at 0.1 µM of COCc1cc(C)n2cnc(C(=O)NC(c3ccc(F)cc3)C(F)(F)F)c2n1 (stereo not shown) [III-22] , please.
Response: < 10%
